Parameter pIC50: see the listing below.
targetOfAssay: Thromboxane-A synthase (Rattus norvegicus)
measurementNotes: Compound was tested for the inhibition of thromboxane synthetase
pIC50: −log10 of the molar value.
experimentalReadout: pIC50

>>> recordedvalue("O=C1c2ccccc2C(=O)N1CCCCCn1ccnc1")
5.22
>>> recordedvalue("O=C1c2ccccc2C(=O)N1CCCCn1ccnc1")
5.70
>>> recordedvalue("O=C1c2ccccc2C(=O)N1CCCn1ccnc1")
5.30
>>> recordedvalue("Cc1cccc2c1C(=O)N(CCCCn1ccnc1)C2=O")
5.70
>>> recordedvalue("Cc1cccc2c1C(=O)N(CCCn1ccnc1)C2=O")
5.40

----------
targetOfAssay: Thromboxane-A synthase (Rattus norvegicus)
Sequence (P49430 whole entry): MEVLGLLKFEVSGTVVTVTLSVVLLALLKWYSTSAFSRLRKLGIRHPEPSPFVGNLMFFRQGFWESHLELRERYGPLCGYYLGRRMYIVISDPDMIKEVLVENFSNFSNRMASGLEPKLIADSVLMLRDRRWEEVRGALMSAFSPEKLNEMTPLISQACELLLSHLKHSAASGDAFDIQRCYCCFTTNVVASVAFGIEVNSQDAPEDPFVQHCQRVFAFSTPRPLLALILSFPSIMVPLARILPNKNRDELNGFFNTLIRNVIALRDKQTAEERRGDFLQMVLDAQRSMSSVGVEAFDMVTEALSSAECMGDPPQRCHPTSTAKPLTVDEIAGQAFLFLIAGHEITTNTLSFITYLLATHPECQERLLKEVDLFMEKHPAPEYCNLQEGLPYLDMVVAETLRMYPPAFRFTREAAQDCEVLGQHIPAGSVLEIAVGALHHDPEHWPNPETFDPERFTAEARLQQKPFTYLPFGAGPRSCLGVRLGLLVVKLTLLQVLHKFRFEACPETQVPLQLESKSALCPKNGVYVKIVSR
measurementNotes: Compound was tested for the inhibition of thromboxane synthetase
Type: functional
pIC50: −log10 of the molar value.
experimentalReadout: pIC50

>>> recordedvalue("O=C1c2ccccc2C(=O)N1CCCCCCCCCCn1ccnc1")
7.00
>>> recordedvalue("O=C1c2ccc(Cl)c(Cl)c2C(=O)N1CCCn1ccnc1")
6.40
>>> recordedvalue("O=C1c2cccc(Br)c2C(=O)N1CCCCCn1ccnc1")
6.22
>>> recordedvalue("O=C1c2ccccc2C(=O)N1CCCCCCCCn1ccnc1")
6.70
>>> recordedvalue("O=C1c2cccc(Br)c2C(=O)N1CCCCn1ccnc1")
6.00
>>> recordedvalue("O=C1c2ccccc2C(=O)N1CCCCCCn1ccnc1")
5.82

----------
targetOfAssay: Thromboxane-A synthase (Rattus norvegicus) (UniProt P49430)
measurementNotes: Inhibition of thromboxane formation in platelets at a concentration of 10e-4 M
Type: functional
// classify(record): look up inhibition in ranges b0 = under 50%, b1 = from 50% up to 90%, b2 = 90% and over

>>> assignedlabel("Cc1cn(CCCN2C(=O)c3ccccc3C2=O)cn1")
"b1"
>>> assignedlabel("CCc1nccn1CCCN1C(=O)c2ccccc2C1=O")
"b0"
>>> assignedlabel("Cc1cccc2c1C(=O)N(CCCCn1ccnc1)C2=O")
"b2"
>>> assignedlabel("O=C1c2ccccc2C(=O)N1CCn1ccnc1")
"b0"
>>> assignedlabel("O=C1c2ccccc2C(=O)N1CCCCn1cncn1")
"b1"
>>> assignedlabel("CC(CCn1ccnc1)N1C(=O)c2ccccc2C1=O (centres undefined)")
"b2"
>>> assignedlabel("Cc1nccn1CCCN1C(=O)c2ccccc2C1=O")
"b0"
>>> assignedlabel("Cc1cccc2c1C(=O)N(CCCn1ccnc1)C2=O")
"b2"
>>> assignedlabel("O=C1c2ccccc2C(=O)N1CCn1cncn1")
"b0"
>>> assignedlabel("O=C1c2ccccc2C(=O)N1CCCn1ccnc1")
"b2"
>>> assignedlabel("CC(CCn1cncn1)N1C(=O)c2ccccc2C1=O (centres undefined)")
"b0"
>>> assignedlabel("O=C1c2ccccc2C(=O)N1CCCn1cncn1")
"b1"
>>> assignedlabel("O=C1c2ccccc2C(=O)N1CCCCn1ccnc1-c1ccccc1")
"b1"
